# procedure.details: Potential of oxidation peak at a glassy carbon electrode
# Type: physicochemical
# settings: pH 6.95 bis-tris buffer, Ag/AgCl/sat. KCl reference electrode
Please note: Eox (potential of oxidation peak) exactly at 200 mV is no (0). Only values below 200 mV get yes (1).

Ask | Is 200 mV strictly greater than the compound's reported Eox (potential of oxidation peak)? compound: CC1=C(C)C(=O)C(C)=C(C)C1=O
Reply | yes (1)

Ask | Now try COC1=CC(=O)C=C(CO)C1=O .
Reply | yes (1)

Ask | Next: O=C1C=CC(=O)C(c2ccccc2)=C1
Reply | no (0)

Ask | And what about the compound COC1=CC(=O)C=C(OC)C1=O ?
Reply | yes (1)

Ask | Same read-out for COC1=C(OC)C(=O)C(C)=CC1=O ?
Reply | yes (1)

Ask | What about CC1=CC(=O)C=C(C)C1=O ?
Reply | yes (1)

Ask | Moving on to the next compound: O=C1C=CC(=O)C=C1 [1,4-benzoquinone, reference compound]
Reply | no (0)
